ASSAYED_SYSTEM: T1, HCoV-OC43 nucleocapsid (N) protein, 2X-StrepTag tagged (HCoV-OC43, UniProt P33469 1-448)
T1 sequence: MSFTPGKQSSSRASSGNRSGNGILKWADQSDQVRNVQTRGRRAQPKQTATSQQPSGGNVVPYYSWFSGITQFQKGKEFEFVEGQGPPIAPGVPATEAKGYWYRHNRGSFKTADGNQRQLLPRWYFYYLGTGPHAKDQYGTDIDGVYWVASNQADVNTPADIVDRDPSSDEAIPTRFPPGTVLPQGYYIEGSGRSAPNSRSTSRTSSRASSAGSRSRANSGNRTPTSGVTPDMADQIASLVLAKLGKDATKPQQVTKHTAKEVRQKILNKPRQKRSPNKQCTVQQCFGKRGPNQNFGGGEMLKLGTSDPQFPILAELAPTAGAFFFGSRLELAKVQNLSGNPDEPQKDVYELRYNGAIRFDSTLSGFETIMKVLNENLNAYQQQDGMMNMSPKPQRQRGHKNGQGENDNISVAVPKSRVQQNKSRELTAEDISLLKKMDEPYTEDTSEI
ASSAY_REMARKS: BLI
So basically: is koff under 0.002 s⁻¹? Then Yes. Not under? Then No.

Consider the worked cases shown below.
| BINDER | LABEL_VALUE |
| --- | --- |
| CXCL9 (ligand) TPVVRKGRCSCISTNQGTIHLQSLKDLKQFAPSPSCEKIEIIATLKNGVQTCLNPDSADVKELIKKWEKQVSQKKKQKNGKKHQKKKVLKVRKSQRSRQKKTT | No |
| CXCL14 (ligand) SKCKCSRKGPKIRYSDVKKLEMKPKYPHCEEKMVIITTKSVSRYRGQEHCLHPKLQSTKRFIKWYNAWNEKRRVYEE | No |
| CXCL13 (ligand) VLEVYYTSLRCRCVQESSVFIPRRFIDRIQILPRGNGCPRKEIIVWKKNKSIVCVDPQAEWIQRMMEVLRKRSSSTLPVPVFKRKIP | No |
| CCL5 (ligand) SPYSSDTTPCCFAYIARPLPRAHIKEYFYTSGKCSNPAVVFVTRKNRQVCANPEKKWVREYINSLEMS | No |

Below 0.002 s⁻¹ on koff? Entry CCL28 (ligand) SEAILPIASSCCTEVSHHISRRLLERVNMCRIQRADGDCDLAAVILHVKRRRICVSPHNHTVKQWMKVQAAKKNGKGNVCHRKKHHGKRNSNRAHQGKHETYGHKTPY Yes
